Provenance of the data: paper PMC10397247

system: T1, 4H656-AA
T1 chain: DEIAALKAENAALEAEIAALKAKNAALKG
assayProtocol: two-hybrid library CCmax;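 also: natural log of median RNA to DNA barcode read ratio; higher means stronger binding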
assayMetric: interaction score

P = DKNAALKAKIAALEAEIAALEAENAALKG [4H3844-AA]
Q = DENAALKAKIAALEAEIAALKAEIAALKG [4H1802-AA]
R = DEIAALKAENAALEAEIAALKAKNAALKG [4H656-AA]
S = DEIAALKAKNAALKAKIAALEAKNAALKG [4H1000-AA]
Task: Rank items: key interaction score, increasing. Give the order by naming the labels one after another as requested.
Output: Q, P, R, S
